Would you mind telling me the reported apparent KD of MS2 coat protein of each entry?
Test system: MS2 coat protein
Assay: apparent KD of MS2 coat protein; higher = weaker reporter binding
Settings: Eterna round: R107; input ligand: theophylline 20 uM
Numbers only, in nM.

constructSequence	apparent KD of MS2 coat protein / nM
AGCUCGCGAAAGCGAGCAACAUGAUCCGAAGGAGCGGGCGAAAGCCCAGGUAGGUCGCGGACAUGAGGAUCACCCAUGUCUCCUU [MAT - Exclusion Arginine A - Mod of Eli - D13]	88.4
GAGUAGAAGACGGCCGCCACUAAACAUGAGGAUCACCCAUGUCGUGAUCCGUUACCUAGAGUAGAUAGGACCGGGUCAUAUAGUC [Exclusion Tryptophan B GF 15]	41.5

Please turn your attention to the following entry.
Task: State the recorded apparent KD of MS2 coat protein for this entry: AAUUAAUUAACCGAUACCAGCCAACCAAAACAUGAGGAUCACCCAUGUAAGAAGAAGGGUGGCCCUUGGCAGCGGUUAAUUAAUU
Result: 16.7
